B1: TPR t1 (parent)
chain: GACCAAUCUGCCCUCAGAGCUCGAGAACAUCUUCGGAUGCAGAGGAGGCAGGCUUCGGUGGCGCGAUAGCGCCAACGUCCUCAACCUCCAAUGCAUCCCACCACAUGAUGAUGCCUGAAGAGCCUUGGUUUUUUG

- Variants of: B1
- EXPERIMENTAL DETAILS: polymerase ribozyme fitness, log enrichment relative to wild type (log ratio); higher = more active; in vitro selection for triplet polymerase activity
ATTRIBUTE MEASURED: polymerase ribozyme fitness (log ratio)
Just the number, please.

| MUTATION ID | polymerase ribozyme fitness (log ratio) |
| --- | --- |
| C79G U87G U92C G120U | -4.54 |
| U92A C123G | -0.636 |
| C13G A37G A41C A121U | -0.739 |

Now turn to the next variant.
Consider C3U C12A C82A . Its measured polymerase ribozyme fitness (log ratio) is -1.8
